test: Liposomal membrane disruption assay (carboxyfluorescein LUVs); format: biochemical; settings: PC/PG/3 LUVs, 1st experiment; read-out: EC50 PC/PG/3 1st
Where a SMILES comes first, the peptide text is derived from it. Bridges are numbered along the chain shown (N, C = ends). [ ]: non-standard residue; d: D form. The star is where a group is joined. Hexanoyl(3R-OH,5-Me) = CC(C)C[C@@H](O)CC(=O)*; dNMeF = CN[C@H](Cc1ccccc1)C(=O)O
Reported property: pEC50
Convention used: pEC50 is expressed as -log10 of the molar concentration.

Consider the compound CC[C@H](C)[C@@H]1NC(=O)[C@@H](Cc2c[nH]c3ccccc23)NC(=O)[C@@H](CCC(N)=O)NC(=O)[C@H](CCC(=O)O)NC(=O)[C@@H](CCCNC(=N)N)NC(=O)[C@H](CC(C)C)NC(=O)[C@@H](Cc2ccccc2)N(C)C(=O)CNC(=O)[C@H](C)NC(=O)[C@@H](CCCNC(=N)N)NC(=O)[C@@H](NC(=O)C[C@H](O)CC(C)C)[C@@H](C)OC(=O)[C@H]([C@@H](C)O)NC1=O [Peptide A1] ({Hexanoyl(3R-OH,5-Me)}-T[dR]AG[dNMeF]L[dR]E[dQ][dW]IT; ester 1-C) . State its measured pEC50.
6.89
